Ref: patent US10750743B2

Tested on: ragweed (common ragweed, Ambrosia elatior)
test_details: Test A postemergence application, visual injury rating
Type: in vivo
protocol_conditions: 31 g ai/ha, 0 to 100 scale, 0 no effect, 100 complete control
Ragweed plant response rating vs 20: less than gives YES; not less than gives NO.

> print(dat)
                                      smiles  category.label
 1  CC(=O)Oc1c(C)nn(C)c(=O)c1-c1c(C(F)(F)F)ccc2cc(C)oc12              NO
 2    Cc1ccc2sc(Cl)cc2c1-c1c(O)c(C)nn(C)c1=O              NO
 3  Cc1cc2c(Cl)ccc(-c3c(OC(=O)c4ccccc4)c(C)nn(C)c3=O)c2o1             YES
 4     Cc1nn(C)c(=O)c(-c2ccc(Cl)c3ccsc23)c1O             YES
 5  CC(=O)Oc1c(C)nn(C)c(=O)c1-c1ccc(Cl)c2oc(C)cc12             YES
 6  Cc1cc2c(-c3c(O)c(C)nn(C)c3=O)ccc(Cl)c2o1             YES
 7  CCC(=O)Oc1c(C)nn(C)c(=O)c1-c1c(C)ccc2cc(C)oc12              NO
 8     Cc1nn(C)c(=O)c(-c2ccc(Cl)c3ccoc23)c1O             YES
 9  COC(=O)Oc1c(C)nn(C)c(=O)c1-c1c(C)ccc2cc(C)oc12              NO
10  Cc1cc2c(Cl)ccc(-c3c(O)c(C)nn(C)c3=O)c2o1             YES
11  CCC(=O)Oc1c(C)nn(C)c(=O)c1-c1cccc2cc(C)oc12             YES
12  CC(=O)Oc1c(C)nn(C)c(=O)c1-c1ccc(Cl)c2ccsc12             YES
13  Cc1cc2ccc(C(F)(F)F)c(-c3c(O)c(C)nn(C)c3=O)c2o1              NO
14  COC(=O)Oc1c(C)nn(C)c(=O)c1-c1ccc(Cl)c2ccsc12             YES
15  CCC(=O)Oc1c(C)nn(C)c(=O)c1-c1ccc(Cl)c2sccc12             YES
16  Cc1cc2c(-c3c(OC(=O)c4ccccc4)c(C)nn(C)c3=O)ccc(Cl)c2o1             YES
17  CCC(=O)Oc1c(C)nn(C)c(=O)c1-c1ccc(Cl)c2cc(C)oc12              NO
18  COC(=O)Oc1c(C)nn(C)c(=O)c1-c1ccc(Cl)c2oc(C)cc12             YES
19     Cn1nc(Cl)c(O)c(-c2cccc3[nH]nnc23)c1=O             YES
20  CCC(=O)Oc1c(C)nn(C)c(=O)c1-c1c(C(F)(F)F)ccc2cc(C)oc12              NO
